target: Rap guanine nucleotide exchange factor 4 (Homo sapiens) (UniProt Q8WZA2); test: Confirmatory qHTS for antagonist of cAMP-regulated guanine nucleotide exchange factor 4 (EPAC2) (AID 1645885); details: EPAC2 Rap1B-BODIPY-GDP exchange fluorescence, biochemical; series mostly up to 12.7 µM; further: nearly all actives have a fitted effect of over 25% in size; further: potency means the concentration at half of the fitted maximal effect
Sequence (Q8WZA2 whole entry, looked up): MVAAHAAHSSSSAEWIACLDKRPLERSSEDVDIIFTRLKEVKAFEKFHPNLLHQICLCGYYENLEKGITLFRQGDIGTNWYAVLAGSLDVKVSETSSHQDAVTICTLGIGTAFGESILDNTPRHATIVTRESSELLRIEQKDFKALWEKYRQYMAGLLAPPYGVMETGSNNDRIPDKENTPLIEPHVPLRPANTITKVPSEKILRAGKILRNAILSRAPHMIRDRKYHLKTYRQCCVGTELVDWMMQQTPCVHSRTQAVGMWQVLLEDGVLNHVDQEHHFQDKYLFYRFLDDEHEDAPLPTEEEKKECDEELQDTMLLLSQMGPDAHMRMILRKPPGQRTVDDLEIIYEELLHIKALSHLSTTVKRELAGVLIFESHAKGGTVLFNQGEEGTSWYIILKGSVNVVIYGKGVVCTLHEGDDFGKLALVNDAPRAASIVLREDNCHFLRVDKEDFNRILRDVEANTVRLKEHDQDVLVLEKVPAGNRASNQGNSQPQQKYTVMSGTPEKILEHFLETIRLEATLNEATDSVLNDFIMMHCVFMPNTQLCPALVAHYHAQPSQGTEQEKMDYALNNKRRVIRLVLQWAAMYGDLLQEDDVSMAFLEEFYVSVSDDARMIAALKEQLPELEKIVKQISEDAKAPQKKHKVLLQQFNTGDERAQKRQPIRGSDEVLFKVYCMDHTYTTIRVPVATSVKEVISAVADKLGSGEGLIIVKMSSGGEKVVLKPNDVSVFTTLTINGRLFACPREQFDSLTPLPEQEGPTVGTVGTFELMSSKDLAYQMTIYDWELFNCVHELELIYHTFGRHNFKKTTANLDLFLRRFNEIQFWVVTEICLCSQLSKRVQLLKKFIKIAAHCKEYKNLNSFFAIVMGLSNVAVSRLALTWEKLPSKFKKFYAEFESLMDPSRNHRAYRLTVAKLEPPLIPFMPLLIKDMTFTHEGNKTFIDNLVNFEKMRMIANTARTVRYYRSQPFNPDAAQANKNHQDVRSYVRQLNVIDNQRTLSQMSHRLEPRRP
Results filed as inconclusive are left out. Active and inactive are the calls of the source. The call rests on the fitted dose curve; in most records, active means well fitted inhibition curve with a large enough effect; inconclusive means small, poorly fitted or top-dose-only effect; inactive means no such curve, though single readings can be large or run the other way.
measurement.name: Potency

Example cases with answers are listed next.
O=S(=O)(O)c1cccc(N=Nc2c(O)ccc3ccccc23)c1	23.9 µM (active)
COc1c(O)cc2oc(-c3ccc(O)c(O)c3)cc(=O)c2c1O	inactive
C/C(=N\Nc1ccc([N+](=O)[O-])cc1)c1ccc(O)cc1	26.9 µM (active)
Cc1cccc(N2CCN(C(=O)c3[nH]c(C(F)(F)F)nc3-c3ccccc3)CC2)c1C	inactive
COc1cccc(-n2ccn(CC(=O)NCc3ccc(C)cc3)c(=O)c2=O)c1	inactive
CC(C)N1CCc2c(sc(NC(=O)c3ccc(C(=O)c4ccccc4)cc3)c2C(N)=O)C1	inactive
CC(C)(C)NC(=O)C(c1ccc(C#N)cc1)n1c(=O)c(-c2ccco2)nc2ccccc21 (stereo not given)	inactive
Cc1cccc(N(C)S(=O)(=O)c2c[nH]c3ccc([N+](=O)[O-])cc23)c1	inactive
CC(C)N1CCc2c(sc(NC(=O)c3ccc(S(=O)(=O)N4CCc5ccccc54)cc3)c2C(N)=O)C1	inactive
CC(C)(C)OC(=O)N1CCC(c2c(C(=O)NCCN3CCC(Cc4ccccc4)CC3)cnn2-c2cccc(Cl)c2)CC1	inactive

For the next question, use this compound.
### Prompt Would you mind telling me what Potency value was observed for `COc1ccccc1NC(=O)CSc1nc2sc(C)c(C)c2c(=O)n1C` ?
### Response inactive
